- ASSAY SYSTEM: T1, human CD81 mutant A164V (human, UniProt P60033 1-236, limits assumed)
- T1 construct: as m30; not shown: C-terminal V5 and 6xHis tags
- T1 sequence: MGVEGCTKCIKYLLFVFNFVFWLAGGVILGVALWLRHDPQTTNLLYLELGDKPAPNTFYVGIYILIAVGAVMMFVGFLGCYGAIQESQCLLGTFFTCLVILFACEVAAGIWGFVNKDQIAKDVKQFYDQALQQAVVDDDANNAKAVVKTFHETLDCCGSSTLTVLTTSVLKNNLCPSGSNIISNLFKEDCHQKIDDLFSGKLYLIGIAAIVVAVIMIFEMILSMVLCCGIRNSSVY
- PROTOCOL SUMMARY: ELISA

BINDER	relative binding affinity
002-A07 S115N (antibody, human IgG4 S228P, lambda, V domains shown, IgG4 S228P; glycosylation site mutant of 002-A07 VL) VH: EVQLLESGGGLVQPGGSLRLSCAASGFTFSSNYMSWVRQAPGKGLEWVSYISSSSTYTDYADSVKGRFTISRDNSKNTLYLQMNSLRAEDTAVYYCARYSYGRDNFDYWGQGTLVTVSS VL: QSVLTQPPSASGTPGQRVTISCTGSTSNIGAGYDTHWYQQLPGTAPKLLIYGNSNRPSGVPDRFSGSKSGTSASLAISGLRSEDEADYYCQSYDTNLNVWVFGGGTKLTVLG	< 20%
002-D03 (antibody, human IgG4 S228P, lambda, V domains shown, IgG4 S228P) VH: EVQLLESGGGLVQPGGSLRLSCAASGFTFRSNYMSWVRQAPGKGLEWVSYISSSSTYTDYADSVKGRFTISRDNSKNTLYLQMNSLRAEDTAVYYCARYSYGRDNFDYWGQGTLVTVSS VL: QSVLTQPPSASGTPGQRVTISCTGSTSNIGAGYDTHWYQQLPGTAPKLLIYGNSNRPSGVPDRFSGSKSGTSASLAISGLRSEDEADYYCQSYDTNLSVWVFGGGTKLTVLG	< 20%
002-C09 (antibody, human IgG4 S228P, lambda, V domains shown, IgG4 S228P) VH: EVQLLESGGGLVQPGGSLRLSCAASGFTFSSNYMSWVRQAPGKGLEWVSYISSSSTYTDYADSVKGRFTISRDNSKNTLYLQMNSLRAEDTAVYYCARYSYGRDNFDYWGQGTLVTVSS VL: QSVLTQPASASGTPGQRVTISCTGSTSNIGAGYGTHWYQRLPGTAPKLLIYGNSNRPSGVPDRFSGSKSGTSASLAISGLRSEDEADYYCQSYDTNLSGWVFGGGTKLTVLG	< 20%

All figures here come from patent US20150139990A1.
